This collection of values is drawn from PubChem BioAssay.

# ASSAY METHOD TEXT: 384-well plate pilot, post-Golgi transport modulator project, inhibition of yeast transport mutant growth (AID 636); note: test concentration not given here
# CONDITION DESCRIPTION: absorbance 615 nm, about 18 h, active compounds read high
MEASURE: inhibition (%)
Response body: numeric value in %, unit text excluded.

Solved cases below.
CC(C)OC(=O)c1cccc(C(=O)O)n1    -1.69
CC1CCCC(C)N1CCNC(=O)C1CCN(S(=O)(=O)N2CCCCC2)CC1 (stereo not given)    -1.2
Cc1ccc(Cn2c(SCC(N)=O)nc3c2c(=O)n(C)c(=O)n3C)cc1    -2.4
O=C(c1c(Cl)nc2sccn12)N(C(=O)c1c(Cl)nc2sccn12)c1ccc(Cl)cn1    -3.38
Cc1sc2ncnc(Oc3ccc(-n4ccnc4)cc3)c2c1C    -8.77
O=C(CN(c1ccc(F)cc1)S(=O)(=O)c1ccc2c(c1)OCCO2)NCC1CCCO1 (stereo not given)    -3.42

The molecule identified as CCCCN(CCCNC(=O)C1CCN(S(=O)(=O)CC)CC1)c1ccccc1 registered its inhibition at -2.89

The molecule identified as Cc1nc2nc(-c3cccnc3)nn2c(C)c1Cl registered its inhibition at -3.78

The molecule identified as O=C1CCCN1Cc1ncnn1-c1ccccc1 registered its inhibition at 0.27

The molecule identified as O=c1c2cnn(-c3ccccc3)c2ncn1/N=C/c1ccncc1 registered its inhibition at -5.07

The molecule identified as CC(=O)[C@H]1[C@H](C#N)C[C@H]2[C@@H]3CC=C4C[C@@H](O)CC[C@]4(C)[C@H]3CC[C@@]21C registered its inhibition at -2.73

The molecule identified as COc1ccccc1-n1c(SCC(=O)NC(C)(C)C)nnc1-c1ccco1 registered its inhibition at -4.79

The molecule identified as Nc1nc(SCCOc2ccccc2)n[nH]1 registered its inhibition at -5.19

The molecule identified as COC(=O)c1ccc2c(=O)n(CC3CCCO3)c(=S)[nH]c2c1 (stereo not given) registered its inhibition at -8.36
